# IC50 annotations
Tested system: JAK3 (Homo sapiens)
Construct: recombinant purified GST-tagged catalytic domain for each enzyme
Sequence (P52333 822-1111 limits assumed): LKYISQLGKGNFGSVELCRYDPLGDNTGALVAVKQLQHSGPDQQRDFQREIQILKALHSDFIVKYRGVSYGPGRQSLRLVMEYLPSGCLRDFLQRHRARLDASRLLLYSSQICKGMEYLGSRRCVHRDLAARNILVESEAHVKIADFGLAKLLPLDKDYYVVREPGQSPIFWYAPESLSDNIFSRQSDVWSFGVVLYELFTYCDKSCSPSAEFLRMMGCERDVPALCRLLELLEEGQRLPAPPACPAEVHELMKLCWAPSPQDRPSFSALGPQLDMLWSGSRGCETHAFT
Assay info: Jak Biochemical HTRF Assay (JAK3)
Condition notes: recombinant purified GST-tagged catalytic domain, [ATP] 2.9 μM, values given as range classes

Reported IC50 (JAK3 (Homo sapiens)) for entry CC(C)[C@@H](Nc1cncc(-c2c[nH]c3ncc(C(=O)N(C)C(C)c4ccn[nH]4)cc23)c1)C(=O)NCC(F)(F)F (some centres unmarked) is 0.01 to 0.5 µM

Field IC50 (JAK3 (Homo sapiens)), entry CC(C)[C@@H](Nc1cncc(-c2c[nH]c3ncc(C(=O)NCc4ccn[nH]4)cc23)c1)C(=O)NCC(F)(F)F : ≤ 0.01 µM

Tested system JAK3 (Homo sapiens); IC50 recorded for CC(C)[C@H](Nc1cncc(-c2c[nH]c3ncc(CNC(=O)N4CCCC4)cc23)c1)C(=O)NCC(F)(F)F was 0.01 to 0.5 µM

Field IC50 (system: JAK3 (Homo sapiens)) for entry CC(CO)NC(=O)c1cnc2[nH]cc(-c3cncc(N[C@@H](C(=O)NCC(F)(F)F)C(C)C)c3)c2c1 (some centres unmarked) = ≤ 0.01 µM

Now examine the next entry.
JAK3 (Homo sapiens) IC50 of CC(C)OC(=O)Nc1cnc2[nH]cc(-c3cncc(NC(C(=O)NCC(F)(F)F)C(C)C)c3)c2c1 (centres unmarked) is 0.01 to 0.5 µM
